# SYSTEM NAME: human 11β-HSD1 (Homo sapiens, UniProt P28845)
# Construct: expressed in transfected cells; host or cells: CHO cells (microsomes)
# Sequence (P28845 whole entry): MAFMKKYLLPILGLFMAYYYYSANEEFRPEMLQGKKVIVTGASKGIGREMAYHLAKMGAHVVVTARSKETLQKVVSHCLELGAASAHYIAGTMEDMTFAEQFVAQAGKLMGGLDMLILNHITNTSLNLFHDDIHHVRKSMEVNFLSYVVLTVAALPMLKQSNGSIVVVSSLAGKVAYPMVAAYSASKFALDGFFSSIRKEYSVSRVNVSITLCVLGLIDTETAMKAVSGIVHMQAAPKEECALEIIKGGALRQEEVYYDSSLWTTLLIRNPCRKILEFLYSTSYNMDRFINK
# ASSAY: Inhibition of microsomal preparation of 11β-HSD1 (SPA, Biological Test Example 1)
# Type: biochemical
# CONDITION: 111 nM
Each item that follows carries a reported inhibition at 0.111 µM.
The response must be a number in % with no trailing unit.

// worked examples, inhibition at 0.111 µM included
> print(dat)
                                   compound  unit.string  result.number
1  O=C(O)CC1CC2(CCN(C(=O)NCc3ccccc3C(F)(F)F)CC2)c2c(Br)cccc21 (centres unmarked)            %           75.7
2  O=C(CCc1ccccc1C(F)(F)F)N1CCC2(CC1)CNCc1ccccc12            %           66.6

Query: Using the record for COC(=O)c1ccc2c(c1)C1(CCN(C(=O)/C=C/c3ccccc3C(F)(F)F)CC1)C(=O)N2C , report its inhibition at 0.111 µM.
Reply: 83.4

Query: Using the record for Cc1ccccc1CNC(=O)N1CCC2(CC1)CC(CC(=O)O)c1cccc(Br)c12 (centres unmarked) , report its inhibition at 0.111 µM.
Reply: 57.2

Query: Using the record for CC(C)(C)OC(=O)N1Cc2ccccc2C2(CCN(C(=O)CCc3ccccc3C(F)(F)F)CC2)C1 , report its inhibition at 0.111 µM.
Reply: 37.6

Ref: patent US8383629B2
